# measurement_target: Neurogenic locus notch homolog protein 2 (Homo sapiens)
# test_method_notes: Notch2 binders on small-molecule microarrays, primary screen, biochemical, small-molecule microarray, 635 nm fluorescence, stem cell growth factors (AID 1073)
# measurement_conditions: Notch2 binding, higher = more signal
For each entry below, report its composite z-score value.

Problem: May I ask what composite z-score has been recorded for COc1cc(C(O)C2C=CC3C(=O)N(c4ccccc4)C(=O)C3N2Nc2ccc(C#N)cc2)cc(OC)c1OC (centres undefined) ?
Result: 1.67

Problem: Same question, CC(C)CNC(=O)[C@@]1(c2ccc([N+](=O)[O-])cc2)CC(=O)N(CC23CC4CC(CC(C4)C2)C3)[C@@H]1c1ccc(CO)cc1 this time
Result: 0.994

Problem: Same question, CO[C@H]1O[C@H](CO)[C@@H](OC(=O)Nc2ccc3c(c2)OCO3)[C@H](OC(=O)Nc2ccccc2)[C@H]1OC(=O)Nc1ccccc1 this time
Result: 0.828

Problem: Same question, CC(=O)NCCCC[C@@H]1NC(=O)[C@H]2C[C@@H](C(=O)NCCCCCC[N+](C)(C)C)[C@@H](c3cccc(OCCO)c3)N2C1=O this time
Result: 0.117

====

# measurement_target: Torsin-1A-interacting protein 1 (Homo sapiens)
# test_method_notes: LAP1 binders from COS7 cell lysate, primary screen, small-molecule microarray, 635/667 nm fluorescence (AID 1116)
# measurement_conditions: COS7-hLAP1 lysate binding, 635 nm fluorescence, higher = more signal
Tag: true if measured composite z-score is not below 1, false if it is.

Problem: Answer whether composite z-score of CCCNC(=O)[C@@H]1c2ccccc2C(=O)N(Cc2ccccc2)[C@H]1c1ccc(CO)cc1 is greater than or equal to 1.
Result: false

Problem: Same question, C=C(COC)C(=O)CC[C@@H](OC(=O)c1cccnc1)c1ccc(CO)o1 this time
Result: false

Problem: Same question, COc1ccc(C#Cc2ccc3c(c2)[C@]2(C(=O)N3)[C@H](c3ccc(O)cc3)N3[C@H](c4ccccc4)[C@H](c4ccccc4)OC(=O)[C@H]3[C@@H]2C(=O)N2CCCCCCC2)cc1 this time
Result: true

Problem: Same question, O=C1O[C@H](c2ccccc2)[C@H](c2ccccc2)N2[C@H]1[C@@H](C(=O)Nc1nc3ccccc3s1)[C@]1(C(=O)Nc3ccccc31)[C@H]2c1ccc(O)cc1 this time
Result: false

Problem: Same question, COC(=O)c1ccc(C(O)C2C=CC3C(=O)N(c4ccccc4)C(=O)C3N2Nc2ccc(C#N)cc2)o1 (stereo not given) this time
Result: false

Problem: Same question, C=C[C@@H](COC(C)=O)N(Cc1ccc([N+](=O)[O-])cc1)S(=O)(=O)c1ccc(Br)cc1 this time
Result: false

Problem: Same question, CCOC(=O)C1=CC[C@@H](c2ccccc2)N(S(=O)(=O)c2ccc(C)cc2)[C@H]1C(=O)OCC this time
Result: false

Problem: Same question, CN1CCC(CCCO)=CC1c1ccc(CN2CCCC2)cc1 (stereo not given) this time
Result: true

Problem: Same question, C=CC(=C)C1=CCO[C@@H]1[C@H]1CCCN1S(=O)(=O)c1ccccc1[N+](=O)[O-] this time
Result: false

Problem: Same question, CCCC[C@@H]1C[C@H]1[C@@H](NC(=O)c1ccc(-c2ccccc2)cc1)c1ccc(-c2ccccc2)cc1 this time
Result: false

Problem: Same question, Cc1c(NC(=O)CC#N)c(=O)n(-c2ccccc2)n1C this time
Result: false

Problem: Same question, [N-]=[N+]=NCc1ccccc1C[C@@]1(C(=O)N2CCOCC2)N=C(c2ccc(OCCCO)cc2)O[C@@H]1c1ccccc1CN=[N+]=[N-] this time
Result: true

Problem: Same question, COCCOC(=O)N1C(=O)[C@@]2(c3cc(C#CCNC(N)=O)ccc31)[C@H](c1ccc(OCCO)cc1)N1[C@H](c3ccccc3)[C@H](c3ccccc3)OC(=O)[C@H]1[C@@H]2C(=O)N1CCc2cc(OC)c(OC)cc2C1 this time
Result: false

Problem: Same question, O=C1C=CC(=O)[C@@H]2CC(COc3ccccc3)=C3[C@@H](CCc4ccccc4)OB(O)C[C@@H]3[C@H]12 this time
Result: false

Problem: Same question, COC(=O)[C@@]1(Cc2ccc(OC)cc2)[C@H]2c3cc(C(=O)N4CCCC4)n(Cc4ccccn4)c3C[C@H]2CN1C(=O)c1ccccc1 this time
Result: true
